RECORDED_ENDPOINT: melting point

// known answers, use as guide
Cc1cccc(-c2cc(C(F)(F)F)cc3c2OC(CN)C3)c1 (configuration not stated)    > 250 °C
COc1ccc(C2=NN(C3CCN(C(=O)[C@H](C)N)CC3)C(=O)[C@@H]3CC=CC[C@H]23)cc1OC    101 to 103 °C
O=C(O)c1cc(=O)cc(C=Cc2ccc(O)cc2)o1    256 °C

I would be grateful if you could provide melting point for each of the following entries.
1. COc1ccc(Nc2nc3ccccc3c(=O)[nH]2)c(C)c1
2. CC(C=Cc1ccccc1-c1cc2c(cc1C)C(C)(C)CCC2(C)C)=CC(=O)O
3. CC(=O)Oc1ccc(C2COc3cc(OC(C)=O)cc(C)c3C2=O)cc1 (configuration not stated)
4. CC1=C(C)CC(C(=O)O)OC1 (configuration not stated)

Result:
1. 270 to 272 °C
2. 181 to 182 °C
3. 143 to 145 °C
4. 82 to 84 °C

# credit: a melting point compilation (Tetko et al.; mined from patent text by program, amines drawn as free bases though some values may be those of a salt)
